# credit: patent US8337899B2

Here the recorded C90 is given for each entry.
assay_comment: centrifuge in vitro dissolution test in MFD solution
Type: physicochemical
measurement_context: concentration at 90 minutes, centrifuge method

{"columns": ["molecule", "C90 / μgA/mL"],
 "data": [
  ["O=C1NC(=O)C(c2ccccc2)(c2ccccc2)N1", 50],
  ["CCC(CC)Oc1cc(C)nc(Oc2c(C)cc(C)cc2C)c1C", 18],
  ["O=C(N[C@@H](Cc1ccccc1)[C@@H](O)C(=O)N1C[C@@H](O)[C@@H](O)C1)c1cc2cc(Cl)ccc2[nH]1 (relative stereo)", 158],
  ["CCC(CC)Nc1cc(C)nc(Oc2c(C)cc(C)cc2C)c1C", 22]
]}
